- study-target: human TRPV1 (Homo sapiens, UniProt Q8NER1)
- Sequence (Q8NER1 whole entry): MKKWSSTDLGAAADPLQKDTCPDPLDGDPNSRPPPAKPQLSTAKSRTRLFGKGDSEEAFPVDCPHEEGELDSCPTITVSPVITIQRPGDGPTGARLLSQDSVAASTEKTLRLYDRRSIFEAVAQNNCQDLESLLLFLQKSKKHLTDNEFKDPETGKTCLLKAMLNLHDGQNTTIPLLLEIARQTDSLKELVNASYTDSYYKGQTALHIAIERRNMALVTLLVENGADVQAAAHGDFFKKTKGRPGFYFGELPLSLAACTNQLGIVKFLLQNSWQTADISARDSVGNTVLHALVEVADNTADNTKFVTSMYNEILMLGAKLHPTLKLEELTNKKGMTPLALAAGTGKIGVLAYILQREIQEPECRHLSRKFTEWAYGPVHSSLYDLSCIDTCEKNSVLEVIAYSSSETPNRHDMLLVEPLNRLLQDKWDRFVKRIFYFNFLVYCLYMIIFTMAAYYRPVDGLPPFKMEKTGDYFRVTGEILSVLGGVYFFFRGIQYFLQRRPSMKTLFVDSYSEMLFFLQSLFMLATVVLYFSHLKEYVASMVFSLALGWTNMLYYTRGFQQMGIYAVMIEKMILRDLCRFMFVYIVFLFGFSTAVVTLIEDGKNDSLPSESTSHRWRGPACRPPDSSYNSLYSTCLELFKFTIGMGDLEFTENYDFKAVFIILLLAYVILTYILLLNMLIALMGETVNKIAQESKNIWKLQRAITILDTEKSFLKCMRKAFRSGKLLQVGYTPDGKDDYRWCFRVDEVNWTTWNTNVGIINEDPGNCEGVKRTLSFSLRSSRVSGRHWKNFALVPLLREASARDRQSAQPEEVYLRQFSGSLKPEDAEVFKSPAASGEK
- procedure-details: FLIPR Ca2+ assay, reduction of L-Menthol activation of TRPV1
- study-conditions: antagonist 100 μM against 1 mM L-Menthol
So I've got a bunch of molecules here, and I need their Average Ca2+ Counts values.
Give bare numbers, in Counts.

Dear reader, for each entry below, please note its Average Ca2+ Counts.
1. CCCC(C)C(=O)OC (stereo not drawn) [methyl 2-methylpentanoate]
2. CC(=O)c1cccn1C [2-acetyl-1-methylpyrrole]
3. O=C(O)c1ccc(O)c(O)c1 [3,4-dihydroxybenzoic acid]
4. C=CCOC(=O)CCCCCCC [allyl caprylate]
5. c1ccc(SSc2ccccc2)cc1 [diphenyl disulfide]
6. CCOC(=O)C1OC1(C)c1ccccc1 (stereo not drawn) [empg]
7. CCCCCCCC=O [octanal]

[1529.3, 1254.0, 1539.7, 2572.0, 1630.5, 1164.0, 2759.0]

Dear reader, for each entry below, please note its Average Ca2+ Counts.
1. CCCCCC(=O)OCC [ethyl hexanoate]
2. Cc1ccc(C(C)C)c(O)c1 [thymol]
3. CCCCOC(=O)CCCCCCCCC(=O)OCCCC [dibutyl sebacate]
4. COc1ccccc1C [o-methylanisole]
5. CCCCCCCCCC(C)=O [2-undecanone]
6. CCCCOC(=O)C(C)CC (stereo not drawn) [butyl 2-methylbutyrate]

1: 3655.5; 2: 1331.3; 3: 1398.0; 4: 1107.3; 5: 1282.3; 6: 1233.7

Dear reader, for each entry below, please note its Average Ca2+ Counts.
1. CCOC(=O)C(=O)CC(=O)CC [ethyl 2,4-dioxohexanoate]
2. COc1ccccc1C(=O)O [2-methoxybenzoic acid]

[1000.3, 1441.7]
